Recorded IC50 by entry
Test system: NCI-H524 (ATCC) human lung cancer cells
Assay type: cell-based
applied.conditions: Table 15; treated 2 hours, further incubated 70 hours; read-out: H524 IC50
Field: numeric (nM). Do not append units.

Request the reported IC50 associated with COc1cc2cc(c1Cl)N(C)C(=O)C[C@H](OC(=O)[C@H](C)N(C)C(=O)CCSC1CC(=O)N(CCCNC(=O)CC[C@H]3C(=O)N[C@@H](Cc4ccc(O)cc4)C(=O)N[C@H](Cc4c[nH]c5ccccc45)C(=O)N[C@@H](CCCCN)C(=O)N[C@@H]([C@@H](C)O)C(=O)N[C@@H](Cc4ccccc4)C(=O)N3C)C1=O)[C@]1(C)O[C@H]1[C@H](C)[C@@H]1C[C@@](O)(NC(=O)O1)[C@H](OC)/C=C/C=C(\C)C2 (some centres unmarked) [Conjugate 12] 1680

Request the reported IC50 associated with COc1cc2cc(c1Cl)N(C)C(=O)C[C@H](OC(=O)[C@H](C)N(C)C(=O)CCSSCCNC(=O)[C@@H](NC(=O)[C@@H]1CSSC[C@H](NC(=O)[C@H](N)Cc3ccccc3)C(=O)N[C@@H](Cc3ccc(O)cc3)C(=O)N[C@H](Cc3c[nH]c4ccccc34)C(=O)N[C@@H](CCCCN)C(=O)N[C@@H]([C@@H](C)O)C(=O)N1)[C@@H](C)O)[C@]1(C)O[C@H]1[C@H](C)[C@@H]1C[C@@](O)(NC(=O)O1)[C@H](OC)/C=C/C=C(\C)C2 [Conjugate 35] 253

Request the reported IC50 associated with COc1cc2cc(c1Cl)N(C)C(=O)C[C@H](OC(=O)[C@H](C)N(C)C(=O)CCSSCCC(=O)NCc1ccc(C[C@@H](N)C(=O)N[C@H]3CSSC[C@@H](C(=O)N[C@H](C(=O)O)[C@@H](C)O)NC(=O)[C@H]([C@@H](C)O)NC(=O)[C@H](CCCCN)NC(=O)[C@@H](Cc4c[nH]c5ccccc45)NC(=O)[C@H](Cc4ccc(O)cc4)NC3=O)cc1)[C@]1(C)O[C@H]1[C@H](C)[C@@H]1C[C@@](O)(NC(=O)O1)[C@H](OC)/C=C/C=C(\C)C2 [Conjugate 115] 327

Request the reported IC50 associated with COc1cc2cc(c1Cl)N(C)C(=O)C[C@H](OC(=O)[C@H](C)N(C)C(=O)CCSSCCNC(=O)CC[C@H]1C(=O)N[C@@H](Cc3ccc(O)cc3)C(=O)N[C@H](Cc3c[nH]c4ccccc34)C(=O)N[C@@H](CCCCN)C(=O)N[C@@H]([C@@H](C)O)C(=O)N[C@@H](Cc3ccccc3)C(=O)N1C)[C@]1(C)O[C@H]1[C@H](C)[C@@H]1C[C@@](O)(NC(=O)O1)[C@H](OC)/C=C/C=C(\C)C2 [Conjugate 14] 298

Request the reported IC50 associated with COc1cc2cc(c1Cl)N(C)C(=O)C[C@H](OC(=O)[C@H](C)N(C)C(=O)CCSSCCC(=O)N[C@H](Cc1ccccc1)C(=O)N[C@H]1CSSC[C@@H](C(=O)N[C@H](C(=O)O)[C@@H](C)O)NC(=O)[C@H]([C@@H](C)O)NC(=O)[C@H](CCCCN)NC(=O)[C@@H](Cc3c[nH]c4ccccc34)NC(=O)[C@H](Cc3ccc(O)cc3)NC1=O)[C@]1(C)O[C@H]1[C@H](C)[C@@H]1C[C@@](O)(NC(=O)O1)[C@H](OC)/C=C/C=C(\C)C2 [Conjugate 74] 549
